B1: Leukocyte immunoglobulin-like receptor subfamily B member 2 (Homo sapiens), Q8N423 (parent)
chain: MTPIVTVLICLGLSLGPRTRVQTGTIPKPTLWAEPDSVITQGSPVTLSCQGSLEAQEYRLYREKKSASWITRIRPELVKNGQFHIPSITWEHTGRYGCQYYSRARWSELSDPLVLVMTGAYPKPTLSAQPSPVVTSGGRVTLQCESQVAFGGFILCKEGEDEHPQCLNSQPHARGSSRAIFSVGPVSPNRRWSHRCYGYDLNSPYVWSSPSDLLELLVPGVSKKPSLSVQPGPVMAPGESLTLQCVSDVGYDRFVLYKEGERDLRQLPGRQPQAGLSQANFTLGPVSRSYGGQYRCYGAHNLSSECSAPSDPLDILITGQIRGTPFISVQPGPTVASGENVTLLCQSWRQFHTFLLTKAGAADAPLRLRSIHEYPKYQAEFPMSPVTSAHAGTYRCYGSLNSDPYLLSHPSEPLELVVSGPSMGSSPPPTGPISTPGPEDQPLTPTGSDPQSGLGRHLGVVIGILVAVVLLLLLLLLLFLILRHRRQGKHWTSTQRKADFQHPAGAVGPEPTDRGLQWRSSPAADAQEENLYAAVKDTQPEDGVEMDTRAAASEAPQDVTYAQLHSLTLRRKATEPPPSQEREPPAEPSIYATLAIH
partner: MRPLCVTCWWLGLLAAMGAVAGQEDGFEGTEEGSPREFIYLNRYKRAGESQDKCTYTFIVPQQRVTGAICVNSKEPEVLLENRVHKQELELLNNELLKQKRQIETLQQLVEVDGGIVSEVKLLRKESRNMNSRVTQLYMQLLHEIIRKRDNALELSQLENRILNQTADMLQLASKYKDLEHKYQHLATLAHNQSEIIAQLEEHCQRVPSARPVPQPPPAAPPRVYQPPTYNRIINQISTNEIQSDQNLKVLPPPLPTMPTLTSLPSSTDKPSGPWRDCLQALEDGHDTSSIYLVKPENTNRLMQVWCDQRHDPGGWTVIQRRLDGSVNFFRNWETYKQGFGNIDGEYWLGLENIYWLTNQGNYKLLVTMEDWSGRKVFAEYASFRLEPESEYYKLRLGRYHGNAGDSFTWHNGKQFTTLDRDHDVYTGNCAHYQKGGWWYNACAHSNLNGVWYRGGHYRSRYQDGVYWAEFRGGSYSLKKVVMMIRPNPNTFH

variants of: B1; conditions: with angl2_human ANGPTL2, Q9UKU9
measured parameter: effect of a mutation on the interaction

• H92S = with no effect
• T393E = with no effect
